Some compounds, each annotated with its measured GI50.
- test_target: Ba/F3 LMNA-NTRK1-G595R stably transfected cell line (Homo sapiens, UniProt P04629, G595R, cells depend on it)
- Construct: fused on or other part: P02545 (Prelamin-A/C)
- Sequence (P04629 whole entry G595R, the tested form may be a part): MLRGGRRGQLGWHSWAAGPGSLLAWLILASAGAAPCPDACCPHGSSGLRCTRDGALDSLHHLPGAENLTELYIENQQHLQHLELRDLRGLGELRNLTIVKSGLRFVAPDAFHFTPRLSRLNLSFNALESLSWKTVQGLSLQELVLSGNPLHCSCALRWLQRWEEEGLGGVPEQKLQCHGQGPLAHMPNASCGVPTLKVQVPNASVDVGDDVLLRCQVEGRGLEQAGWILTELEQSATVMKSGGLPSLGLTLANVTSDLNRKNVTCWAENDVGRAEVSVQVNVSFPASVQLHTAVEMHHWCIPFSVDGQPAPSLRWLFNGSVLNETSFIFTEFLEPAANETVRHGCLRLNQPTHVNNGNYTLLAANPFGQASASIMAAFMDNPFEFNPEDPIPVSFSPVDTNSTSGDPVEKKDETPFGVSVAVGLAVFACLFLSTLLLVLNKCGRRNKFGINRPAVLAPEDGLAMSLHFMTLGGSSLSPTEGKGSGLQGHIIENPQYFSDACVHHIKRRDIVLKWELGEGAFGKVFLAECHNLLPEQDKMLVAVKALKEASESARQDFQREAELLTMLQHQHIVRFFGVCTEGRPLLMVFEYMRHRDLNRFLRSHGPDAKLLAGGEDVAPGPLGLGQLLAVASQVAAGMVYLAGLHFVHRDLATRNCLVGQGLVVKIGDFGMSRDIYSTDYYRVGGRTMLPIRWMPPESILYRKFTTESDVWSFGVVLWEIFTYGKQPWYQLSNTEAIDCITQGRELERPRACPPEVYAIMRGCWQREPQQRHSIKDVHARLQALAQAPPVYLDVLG
- run_description: Cell proliferation inhibition (CellTiter-Glo)
- Type: cell-based
- condition_notes: 72 hours, read-out: The half maximal inhibitory concentration IC50 against cells, Ba/F3 LMNA-NTRK1-G595R
Lab book: enter the figure in nM, no units written.

O=C1NC2(CC2)COc2ccc(F)cc2[C@H]2CCON2c2ccn3ncc1c3n2 (single isomer, unassigned) [WX003A]	27.9

Ask: Give me measured GI50, please, for this compound: C[C@@H]1COc2ncc(F)cc2[C@H]2CCON2c2ccn3ncc(c3n2)C(=O)N1 [WX004A]
Result: 14.5

Ask: Give me measured GI50, please, for this compound: O=C1NC2(COC2)COc2ncc(F)cc2[C@H]2CCON2c2ccn3ncc1c3n2 [WX006A]
Result: 19.4

Ask: Give me measured GI50, please, for this compound: O=C1N[C@@H]2COCC[C@@H]2Oc2ncc(F)cc2[C@H]2CCON2c2ccn3ncc1c3n2 [WX010B]
Result: 20.9
